In this section, each of the binders is paired with its reported interaction score.
# target.or.system: T1, 4H2588-bH
# T1 chain: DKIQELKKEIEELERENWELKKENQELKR
# assay.summary: two-hybrid library CCNG1;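 note: natural log of median RNA to DNA barcode read ratio; higher means stronger binding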

binder: DKIQELEKEIEELKRENWELKKKNQELER [4H2143-bH]
interaction score: -0.874

binder: DEIQELEKEIEELKRKNWELKKEIQELER [4H121-bH]
interaction score: -1.11

binder: DKIQELEKKNEELERKIWELKKEIQELER [4H2473-bH]
interaction score: -0.165

binder: DKIQELEKENEELERKIWELKKKNQELER [4H2223-bH]
interaction score: 0.461

binder: DKIQELKKEIEELERENWELKKENQELKR [4H2588-bH]
interaction score: 0.98

binder: DKIQELEKKNEELKREIWELEKKNQELER [4H2503-bH]
interaction score: -0.858

binder: DEIQELEKENEELERKNWELEKKIQELKR [4H182-bH]
interaction score: -0.809

binder: DKIQELEKKNEELEREIWELEKKIQELKR [4H2438-bH]
interaction score: -0.0625

binder: DKIQELEKEIEELKRENWELEKKIQELKR [4H2134-bH]
interaction score: 1.01
